# System: LXFL 529
# protocolDescription: NCI tumour cell line growth inhibition, 48 h
Calls of active or inactive are those of the source. Cut-off read from the data, not from the text of the source: active = GI50 up to about 1.1 µM and inactive = higher.
A correct response names exactly one class from active, inactive

Please review the entries below; each comes with its answer.
[
  {
    "molecule": "CCOC(=O)CC(NC(=O)c1ccc(/N=N/N(C)C)cc1)C(=O)OCC (stereo unspecified)",
    "assignedClass": "inactive"
  },
  {
    "molecule": "CC12C=C[C@]3(CC[C@@H]4[C@@](C)(CO)CCC[C@]4(C)C3CC1)C2 (stereo partly specified)",
    "assignedClass": "inactive"
  },
  {
    "molecule": "CCSC1=CC(Cc2ccc(OC)cc2)N(C(=O)OC)C1 (stereo unspecified)",
    "assignedClass": "inactive"
  },
  {
    "molecule": "C=CCCCCCCCCCCCC1CCC(CC)N1 (stereo unspecified)",
    "assignedClass": "inactive"
  }
]

Would you mind telling me which call this test gave COC(=O)[C@@H](C)[C@H]1CC[C@@](C)(CCC2=C(C)CC3C=C(C)CCC3C2(C)C)OO1 (stereo partly specified) ?
active

Fill in: this test's call for CC1=NC(C(=O)O)Cc2c1[nH]c1ccccc21 (stereo unspecified) is ___
inactive

How was CCCc1nc(NC#N)nc(C(=O)Nc2ccccc2)c1CC classified in this test?
inactive

Record request — test call for CC1(C)OC(=O)C(=Cc2ccc(O)cc2)C(=O)O1
inactive

I'd appreciate the recorded outcome for O=C1OC(c2ccc(Cl)cc2)(c2ccc(Cl)cc2)c2c1ccc1ccccc21 from this test.
inactive

// param item: C[C@]12CC[C@H](OC(=O)Cc3ccc(N(CCCl)CCCl)cc3)CC1CC[C@@H]1C2CC[C@]2(C)NC(=O)CCC12 (stereo partly specified) ; yields the recorded call
inactive

Identify the outcome logged in this assay for the molecule shown: S=c1sc2c(S)nc(S)nc2n1-c1ccccc1
inactive

How was CCc1ccc(/C=C\c2cc(OC)c(OC)c(OC)c2)cc1 classified in this test?
active

Write down the call the test reported for this molecule. Item: CC1=C(C(=O)Nc2ccc(Cl)c(Cl)c2)C(c2ccco2)C(C(=O)Nc2ccc(Cl)c(Cl)c2)=C(C)N1
inactive

For CC(=O)O[C@H]1C(=O)[C@@]2(C)C(C(OC(=O)c3ccccc3)C3[C@@H](O)C(OC(=O)[C@@H](O)[C@H](NC(=O)c4ccccc4)c4ccc(C(F)(F)F)cc4)C(C)=C1C3(C)C)[C@]1(OC(C)=O)CO[C@@H]1C[C@@H]2O (stereo partly specified) , which call appears in the assay record?
inactive
